STUDY SYSTEM: PARP-1 FL (Homo sapiens, UniProt P09874)
Sequence (P09874 whole entry): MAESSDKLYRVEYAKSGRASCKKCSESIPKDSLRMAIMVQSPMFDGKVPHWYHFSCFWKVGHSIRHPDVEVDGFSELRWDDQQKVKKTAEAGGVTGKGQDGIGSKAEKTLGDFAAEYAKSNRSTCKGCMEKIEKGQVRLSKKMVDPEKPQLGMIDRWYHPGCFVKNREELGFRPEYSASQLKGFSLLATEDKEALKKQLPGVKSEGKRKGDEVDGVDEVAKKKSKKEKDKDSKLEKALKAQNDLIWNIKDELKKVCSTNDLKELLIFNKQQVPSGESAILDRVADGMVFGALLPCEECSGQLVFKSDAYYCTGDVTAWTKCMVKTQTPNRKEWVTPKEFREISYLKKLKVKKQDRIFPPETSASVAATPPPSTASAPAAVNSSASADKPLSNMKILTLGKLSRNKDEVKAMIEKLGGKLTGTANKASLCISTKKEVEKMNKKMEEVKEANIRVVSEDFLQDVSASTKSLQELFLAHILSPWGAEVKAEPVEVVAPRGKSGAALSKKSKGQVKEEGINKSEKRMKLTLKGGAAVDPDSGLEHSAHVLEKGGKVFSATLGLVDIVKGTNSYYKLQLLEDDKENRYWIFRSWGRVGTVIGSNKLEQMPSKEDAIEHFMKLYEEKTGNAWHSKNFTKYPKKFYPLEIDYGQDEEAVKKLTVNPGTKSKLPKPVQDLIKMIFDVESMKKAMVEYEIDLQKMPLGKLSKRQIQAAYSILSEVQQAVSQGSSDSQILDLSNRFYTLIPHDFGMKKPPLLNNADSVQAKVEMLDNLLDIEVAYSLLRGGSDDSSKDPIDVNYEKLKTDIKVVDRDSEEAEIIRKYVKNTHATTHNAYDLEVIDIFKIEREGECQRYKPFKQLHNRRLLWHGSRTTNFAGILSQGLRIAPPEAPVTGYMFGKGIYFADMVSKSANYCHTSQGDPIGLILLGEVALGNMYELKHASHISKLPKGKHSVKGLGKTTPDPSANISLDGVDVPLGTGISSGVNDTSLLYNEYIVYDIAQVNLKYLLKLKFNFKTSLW
PROCEDURE TEXT: Fluorescence polarization probe displacement assay
Type: binding
Structures can show the parent of a compound that is named as a salt.
VALUE TYPE: Kd

Below are worked cases with known answers.
INSERT INTO results (molecule, test_result) VALUES
  ('O=c1[nH]c(-c2cccc(O)c2)c(OCCCN2CCCCC2)c2ccccc12', '< 0.03 µM'),
  ('COc1ccc(-c2[nH]c(=O)c3cc(F)ccc3c2OCCN)cc1.Cl [Compound 25, hydrochloride]', '< 0.01 µM'),
  ('O=c1[nH]c(-c2ccccc2)c(OCCCN2CCCC2)c2ccccc12', '0.04 µM'),
  ('O=c1[nH]c(-c2ccc(O)cc2)c(OCCCN2CCCCC2)c2ccccc12', '< 0.03 µM');

-- ask Lab note: need Kd with PARP-1 FL (Homo sapiens, UniProt P09874) for entry CNCCOc1c(-c2ccccc2)[nH]c(=O)c2ccccc12 , please look it up.
-- reply < 0.03 µM

-- ask Lab note: need Kd with PARP-1 FL (Homo sapiens, UniProt P09874) for entry NCCOc1c(-c2ccsc2)[nH]c(=O)c2ccccc12 [Compound 29, hydrochloride] , please look it up.
-- reply < 0.03 µM

-- ask Lab note: need Kd with PARP-1 FL (Homo sapiens, UniProt P09874) for entry NCCOc1c(-c2ccc(O)cc2)[nH]c(=O)c2cc(F)ccc12 [Compound 28, hydrobromide] , please look it up.
-- reply < 0.03 µM

-- ask Lab note: need Kd with PARP-1 FL (Homo sapiens, UniProt P09874) for entry NCCCOc1c(-c2ccccc2)[nH]c(=O)c2ccccc12 [Compound 3, hydrochloride] , please look it up.
-- reply < 0.03 µM

-- ask Lab note: need Kd with PARP-1 FL (Homo sapiens, UniProt P09874) for entry NCCOc1c(-c2ccccc2)[nH]c(=O)c2ccccc12 [Compound 1, hydrochloride] , please look it up.
-- reply < 0.03 µM

----------
STUDY SYSTEM: PARP-3 FL (Homo sapiens, UniProt Q9Y6F1)
Sequence (Q9Y6F1 whole entry): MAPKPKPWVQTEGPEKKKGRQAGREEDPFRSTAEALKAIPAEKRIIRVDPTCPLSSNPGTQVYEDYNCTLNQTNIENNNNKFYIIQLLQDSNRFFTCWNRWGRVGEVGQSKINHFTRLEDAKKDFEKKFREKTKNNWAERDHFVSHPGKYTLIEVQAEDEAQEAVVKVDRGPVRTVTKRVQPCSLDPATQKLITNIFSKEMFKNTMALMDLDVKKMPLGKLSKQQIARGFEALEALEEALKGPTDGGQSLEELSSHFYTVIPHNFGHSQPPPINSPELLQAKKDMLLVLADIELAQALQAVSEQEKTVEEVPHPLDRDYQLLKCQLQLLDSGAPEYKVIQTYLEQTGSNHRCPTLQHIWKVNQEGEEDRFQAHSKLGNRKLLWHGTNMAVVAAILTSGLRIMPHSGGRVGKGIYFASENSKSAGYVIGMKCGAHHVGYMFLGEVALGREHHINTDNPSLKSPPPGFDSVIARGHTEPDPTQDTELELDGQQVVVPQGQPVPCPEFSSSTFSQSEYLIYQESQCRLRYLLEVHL
PROCEDURE TEXT: Fluorescence polarization probe displacement assay
Format: binding
EXPERIMENTAL SETUP: compound P1 as the probe
Counter-ions that a name gives are not always drawn.
# reported log10 of DC50; entries follow
In plain terms, each number is the log10 of measured DC50 in µM.

Below are worked cases with known answers.
INSERT INTO assay_data (molecule, test_result) VALUES
  ('O=c1[nH]c(-c2cccc(O)c2)c(OCCCN2CCCCC2)c2ccccc12 [Compound 33]', -0.47),
  ('COc1ccc(-c2[nH]c(=O)c3cc(F)ccc3c2OCCN)cc1.Cl [Compound 25, hydrochloride]', -0.68),
  ('Cc1cccc2c(=O)[nH]c(-c3ccccc3)c(OCCN)c12 [Compound 49, hydrochloride]', -0.70),
  ('CN1CCN(CCOc2c(-c3ccccc3)[nH]c(=O)c3cc(F)ccc23)CC1 [Compound 89, trifluoroacetate]', 0.81),
  ('Cl.NCCOc1c(-c2ccccc2)[nH]c(=O)c2cc(F)ccc12 [Compound 39, hydrochloride]', -0.55),
  ('NCCOc1c(-c2ccc(O)cc2)[nH]c(=O)c2ccccc12 [Compound 26]', -0.46);

-- ask Lab note: need log10 of DC50 with PARP-3 FL (Homo sapiens, UniProt Q9Y6F1) for entry O=c1[nH]c(-c2cccc(O)c2)c(OCCCN2CCCCC2)c2ccc(F)cc12 [Compound 45, hydrochloride] , please look it up.
-- reply -0.60

-- ask Lab note: need log10 of DC50 with PARP-3 FL (Homo sapiens, UniProt Q9Y6F1) for entry NCCOc1c(-c2cccc(O)c2)[nH]c(=O)c2cc(F)ccc12 [Compound 47] , please look it up.
-- reply -0.66

----------
# reported DC50; entries follow
STUDY SYSTEM: PARP-1 FL (Homo sapiens)
PROCEDURE TEXT: Fluorescence polarization probe displacement assay
Type: binding
EXPERIMENTAL SETUP: half maximal displacement concentration
Where a name gives a salt, the structure may show the parent alone.

INSERT INTO results (molecule, test_result) VALUES
  ('NCCOc1c(-c2ccc(O)cc2)[nH]c(=O)c2ccccc12', '< 0.25 µM'),
  ('CCN(CC)CCOc1c(-c2ccccc2)[nH]c(=O)c2cc(F)ccc12 [Compound 88, trifluoroacetate]', '1.59 µM'),
  ('O=c1[nH]c(-c2ccccc2)c(OCCCN2CCCCC2)c2ccc(F)cc12', '< 0.25 µM');

Note: attention shifts to another entry.
-- ask Look up DC50 for this molecule: NCCOc1c(-c2cccc(Cl)c2)[nH]c(=O)c2cc(F)ccc12 [Compound 50, hydrochloride]
-- reply < 0.25 µM

----------
# reported DC50; entries follow
STUDY SYSTEM: PARP-1 FL (Homo sapiens, UniProt P09874)
PROCEDURE TEXT: Fluorescence polarization probe displacement assay
Assay type: binding
EXPERIMENTAL SETUP: half maximal displacement concentration
Where a name gives a salt, the structure may show the parent alone.

INSERT INTO assay_data (compound, value_type, test_result) VALUES
  ('COc1cccc(-c2[nH]c(=O)c3ccccc3c2OCCN)c1.Cl [Compound 11, hydrochloride]', 'DC50', '< 0.25 µM'),
  ('COc1cccc(-c2[nH]c(=O)c3cc(F)ccc3c2OCCCN2CCCCC2)c1 [Compound 43, hydrochloride]', 'DC50', '< 0.25 µM'),
  ('COc1ccc(-c2[nH]c(=O)c3ccccc3c2OCCN)cc1.Cl [Compound 24, hydrochloride]', 'DC50', '0.32 µM'),
  ('O=c1[nH]c(-c2ccccc2)c(OCCCN2CCCCC2)c2ccc(Cl)cc12', 'DC50', '< 0.25 µM'),
  ('NCCOc1c(-c2ccccc2)[nH]c(=O)c2ccccc12 [Compound 1, hydrochloride]', 'DC50', '< 0.25 µM');

-- ask Look up DC50 for this compound: O=c1[nH]c(-c2ccccc2)c(OCCCNCc2ccccc2)c2ccc(F)cc12
-- reply < 0.25 µM

-- ask Look up DC50 for this compound: COc1ccc(-c2[nH]c(=O)c3ccccc3c2OCCCN2CCCCC2)cc1
-- reply < 0.25 µM

-- ask Look up DC50 for this compound: CN1CCN(CCOc2c(-c3ccccc3)[nH]c(=O)c3cc(F)ccc23)CC1 [Compound 89, trifluoroacetate]
-- reply 0.4 µM

-- ask Look up DC50 for this compound: NCCCOc1c(-c2ccccc2)[nH]c(=O)c2cc(F)ccc12 [Compound 86, hydrochloride]
-- reply < 0.25 µM

----------
STUDY SYSTEM: PARP-3 FL (Homo sapiens, UniProt Q9Y6F1)
PROCEDURE TEXT: Fluorescence polarization probe displacement assay
Type: binding
EXPERIMENTAL SETUP: compound P1 as the probe
Structures can show the parent of a compound that is named as a salt.
One threshold, 0.5 µM, splits the recorded DC50 values: lower ones are yes (1), equal or higher ones are no (0).

Worked cases, answers included:
INSERT INTO measurements (molecule, study_system, group) VALUES
  ('COc1ccc(-c2[nH]c(=O)c3ccccc3c2OCCCN2CCCCC2)cc1 [Compound 23]', 'PARP-3 FL (Homo sapiens, UniProt Q9Y6F1)', 'yes (1)'),
  ('NCCOc1c(-c2cccc(Cl)c2)[nH]c(=O)c2cc(F)ccc12 [Compound 50, hydrochloride]', 'PARP-3 FL (Homo sapiens, UniProt Q9Y6F1)', 'yes (1)'),
  ('O=c1[nH]c(-c2cccc(Cl)c2)c(OCCCN2CCCCC2)c2ccccc12 [Compound 44]', 'PARP-3 FL (Homo sapiens, UniProt Q9Y6F1)', 'no (0)'),
  ('O=c1[nH]c(-c2ccccc2)c(OCCCNCc2ccccc2)c2ccc(F)cc12 [Compound 87]', 'PARP-3 FL (Homo sapiens, UniProt Q9Y6F1)', 'no (0)'),
  ('NCCOc1c(-c2cccc(O)c2)[nH]c(=O)c2ccccc12 [Compound 32, hydrochloride]', 'PARP-3 FL (Homo sapiens, UniProt Q9Y6F1)', 'yes (1)');

-- ask Hello, is DC50 of the following molecule strictly smaller than 0.5 µM? COc1cccc(-c2[nH]c(=O)c3ccccc3c2OCCN)c1.Cl [Compound 11, hydrochloride]
-- reply yes (1)

-- ask Hello, is DC50 of the following molecule strictly smaller than 0.5 µM? O=c1[nH]c(-c2ccc(O)cc2)c(OCCCN2CCCCC2)c2ccccc12 [Compound 27]
-- reply no (0)

-- ask Hello, is DC50 of the following molecule strictly smaller than 0.5 µM? COc1ccc(-c2[nH]c(=O)c3ccccc3c2OCCN)cc1.Cl [Compound 24, hydrochloride]
-- reply yes (1)

----------
STUDY SYSTEM: PARP-1 FL (Homo sapiens, UniProt P09874)
PROCEDURE TEXT: Fluorescence polarization probe displacement assay
Type: binding
Structures can show the parent of a compound that is named as a salt.
VALUE TYPE: Kd

INSERT INTO results (compound, test_result) VALUES
  ('COc1cccc(-c2[nH]c(=O)c3cc(F)ccc3c2OCCCN2CCCCC2)c1 [Compound 43, hydrochloride]', '0.04 µM');

-- ask Look up Kd for this compound: NCCOc1c(-c2cccc(O)c2)[nH]c(=O)c2cc(F)ccc12 [Compound 47]
-- reply < 0.03 µM
